All figures here come from patent US5747320A.

- Tested on: purified β-glucosidase from Candida peltata Y-21603
- PROCEDURE_SUMMARY: Substrate specificity and kinetic analysis (Lineweaver-Burk)
- Assay type: biochemical
- CONDITION_NOTES: pH 5.0 and 50° C.; read-out: apparent Km
What Km was measured for each of the following?
Numbers only, in mM.

Below: 3 compounds and their reported Km.
INSERT INTO results (compound, measure_unit, observed_measurement) VALUES
  ('OC[C@H]1O[C@@H](O[C@H]2[C@H](O)[C@@H](O)[C@H](O[C@H]3[C@H](O)[C@@H](O)[C@H](O[C@H]4[C@H](O)[C@@H](O)[C@H](O[C@H]5[C@H](O)[C@@H](O)[C@H](O[C@H]6[C@H](O)[C@@H](O)C(O)O[C@@H]6CO)O[C@@H]5CO)O[C@@H]4CO)O[C@@H]3CO)O[C@@H]2CO)[C@H](O)[C@@H](O)[C@@H]1O (stereo partly shown)', 'mM', 18),
  ('OC[C@H]1O[C@@H](O[C@H]2[C@H](O)[C@@H](O)[C@H](O[C@H]3[C@H](O)[C@@H](O)C(O)O[C@@H]3CO)O[C@@H]2CO)[C@H](O)[C@@H](O)[C@@H]1O (stereo partly shown)', 'mM', 39),
  ('OC[C@H]1O[C@@H](O[C@H]2[C@H](O)[C@@H](O)[C@H](O[C@H]3[C@H](O)[C@@H](O)[C@H](O[C@H]4[C@H](O)[C@@H](O)C(O)O[C@@H]4CO)O[C@@H]3CO)O[C@@H]2CO)[C@H](O)[C@@H](O)[C@@H]1O (stereo partly shown)', 'mM', 35);

[ask] Can you share its Km? I mean this compound: O=[N+]([O-])c1ccc(O[C@@H]2O[C@H](CO)[C@@H](O)[C@H](O)[C@H]2O)cc1 [pNPβG, p-nitrophenyl β-D-glucoside]
[reply] 2.3
